System: E. coli DH5α
Experiment: MIC by agar dilution, E. coli DH5α
Assay type: cell-based
Details: Escherichia coli
Kindly apply the following: Fulfilled if MIC is less than 0.06 µg/mL, Not fulfilled in every other case.

Worked examples, 3 molecules total:
{"MOLECULE": "C[C@@H]1O[C@@H]1P(=O)(O)O [FOS, fosfomycin]", "CATEGORY LABEL": "Not fulfilled"}
{"MOLECULE": "CO/N=C(\\C(=O)N[C@@H]1C(=O)N2C(C(=O)O)=C(COC(N)=O)CS[C@H]12)c1ccco1 [CXM, cefuroxime]", "CATEGORY LABEL": "Not fulfilled"}
{"MOLECULE": "NCC[C@H](O)C(=O)N[C@@H]1C[C@H](N)[C@@H](O[C@H]2O[C@H](CN)[C@@H](O)[C@H](O)[C@H]2O)[C@H](O)[C@H]1O[C@H]1O[C@H](CO)[C@@H](O)[C@H](N)[C@H]1O [AMK, amikacin]", "CATEGORY LABEL": "Not fulfilled"}

Lab note: next molecule to report on.
Query: Is MIC of CO/N=C(\C(=O)N[C@@H]1C(=O)N2C(C(=O)O)=C(COC(C)=O)CS[C@H]12)c1csc(N)n1 [CTX, cefotaxime] strictly below 0.06 µg/mL?
Result: Fulfilled
